system: PC-3; test: NCI tumour cell line growth inhibition, 48 h
The source made the active and inactive calls. No stated cut-off is given here; in the data, active = GI50 up to about 1.1 µM and inactive = higher.
endpoint name: GI50

* C/C=C(\CCC1NCCc2c1[nH]c1ccccc21)[Si](C)(C)C (stereo not given) | 5.01 µM (inactive)
* O=C(O)c1ccc(C(=O)c2ccccc2C(=O)O)cc1C(=O)O | > 100 µM (inactive)
* COc1cc(Oc2nc3ccccc3nc2C(=O)O)cc(OC)c1OC | > 100 µM (inactive)
* COc1c(O)cc(/C=C/c2cc(O)cc3c2[C@@]2(C(=O)O3)c3c(O)cc(O)cc3OC2c2cccc(O)c2)cc1O (stereo not given in full) | 51.8 µM (inactive)
* COc1ccc(-c2nc(O)c3ccccc3n2)c(OC)c1 | > 100 µM (inactive)
* CC(C)(C)c1ccc(/C=N/NC(=O)CSCC(=O)N/N=C/c2ccc(C(C)(C)C)cc2)cc1 | 2.8 µM (inactive)
* CC12CCCC3(CC(=O)C(C)(C)C3C(=O)C1)C2 (stereo not given) | > 100 µM (inactive)
* CCOC(=O)C(NC(=O)c1ccccc1)(Nc1ccc(S(=O)(=O)Nc2ncccn2)cc1)C(F)(F)F (stereo not given) | > 100 µM (inactive)
* COC(=O)CCc1ccc2c(c1)C(=O)CC2 | > 100 µM (inactive)
* Cc1ccc(C(=O)C#Cc2cn(C3CC(O)C(CO)O3)c(=O)[nH]c2=O)cc1 (stereo not given) | > 100 µM (inactive)
